Every entry's value here was drawn from paper PMC10066265.

- TARGET SYSTEM: His6-PP1α_(7-330) (UniProt P62136 7-330)
- Sequence (P62136 7-330): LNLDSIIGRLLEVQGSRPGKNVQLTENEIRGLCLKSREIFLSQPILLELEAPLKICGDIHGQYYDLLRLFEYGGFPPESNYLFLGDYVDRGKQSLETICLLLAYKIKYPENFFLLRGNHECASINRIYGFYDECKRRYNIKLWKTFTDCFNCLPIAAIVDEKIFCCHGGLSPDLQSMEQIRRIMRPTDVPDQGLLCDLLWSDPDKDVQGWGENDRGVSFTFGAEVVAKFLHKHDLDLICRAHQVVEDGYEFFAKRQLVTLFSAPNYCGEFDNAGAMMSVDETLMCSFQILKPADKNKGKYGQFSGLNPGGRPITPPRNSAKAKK
- TEST SUMMARY: cell-based or functional assay
PARAMETER MEASURED: IC50 of PP1 inhibition (dephosphorylation of the H3pT3 peptide, released Pi) (nM)
Your answer is read as nM, so omit the unit and give the number.

Incoming: Report IC50 of PP1 inhibition (dephosphorylation of the H3pT3 peptide, released Pi) for SLTIKLRKRKPEKKVEWTSDTVDNEHMGRRSSKCSCIYEKPR (domain or fragment, human, UniProt O60927 27-68, looked up, PPP1R11), human, residues 27-68; source: E. coli BL21 (DE3), purified (Ni-NTA, TEV, heat 95 °C, SEC); not shown: His6, N-terminal, cleaved; MBP, N-terminal, cleaved) [CSC: I3_(27-68) C61S] please.
Outgoing: 158

Incoming: Fill in: IC50 of PP1 inhibition (dephosphorylation of the H3pT3 peptide, released Pi) of SLTIKLRKRKPEKKVEWTSDTVDNEHMGRRSSK (domain or fragment, human, UniProt O60927 27-59, looked up, PPP1R11), human, residues 27-59; also called I3 CCC_(deletion) variant; I3_(27-68) CCC_(deletion); source: E. coli BL21 (DE3), purified (Ni-NTA, TEV, heat 95 °C, SEC); not shown: His6, N-terminal, cleaved; MBP, N-terminal, cleaved) [CCC_(deletion): I3_(27-59) (Δ60-68)] is ___
Outgoing: 422

Incoming: Reported IC50 of PP1 inhibition (dephosphorylation of the H3pT3 peptide, released Pi) for SLTIKLRKRKPEKKVEWTSDTVDNEHMGRRSSKSCCIYEKPR (domain or fragment, human, UniProt O60927 27-68, looked up, PPP1R11), human, residues 27-68; source: E. coli BL21 (DE3), purified (Ni-NTA, TEV, heat 95 °C, SEC); not shown: His6, N-terminal, cleaved; MBP, N-terminal, cleaved) [SCC: I3_(27-68) C60S] : what is it?
Outgoing: 243

Incoming: Which IC50 of PP1 inhibition (dephosphorylation of the H3pT3 peptide, released Pi) value belongs to SLTIKLRKRKPEKKVEWTSDTVDNEHMGRRSSKCSSIYEKPR (domain or fragment, human, UniProt O60927 27-68, looked up, PPP1R11), human, residues 27-68; source: E. coli BL21 (DE3), purified (Ni-NTA, TEV, heat 95 °C, SEC); not shown: His6, N-terminal, cleaved; MBP, N-terminal, cleaved) [CSS: I3_(27-68) C61S/C62S] ?
Outgoing: 153

Incoming: Which value of IC50 of PP1 inhibition (dephosphorylation of the H3pT3 peptide, released Pi) has been reported for SLTIKLRKRKPEKKVEWTSDTVDNEHMGRRSSKSSSIYEKPR (domain or fragment, human, UniProt O60927 27-68, looked up, PPP1R11), human, residues 27-68; also called I3_(27-68)SSS; I3_(27-68) SSS; source: E. coli BL21 (DE3), purified (Ni-NTA, TEV, heat 95 °C, SEC); not shown: His6, N-terminal, cleaved; MBP, N-terminal, cleaved) [SSS: I3_(27-68) C60S/C61S/C62S] in the records?
Outgoing: 380

Incoming: So what does the record say about IC50 of PP1 inhibition (dephosphorylation of the H3pT3 peptide, released Pi) for SLTIKLRKRKPEKKVEWTSDTVDNEHMGRRSSKCCCIYEKPR (domain or fragment, human, UniProt O60927 27-68, looked up, PPP1R11), human, residues 27-68; also called WT I3_(27-68); source: E. coli BL21 (DE3), purified (Ni-NTA, TEV, heat 95 °C, SEC); not shown: His6, N-terminal, cleaved; MBP, N-terminal, cleaved) [I3_(27-68) (I3 PP1 interaction domain)] ?
Outgoing: 75

Incoming: Fill blank: measured IC50 of PP1 inhibition (dephosphorylation of the H3pT3 peptide, released Pi) of the binder SLTIKLRKRKPEKKVEWTSDTVDNEHMGRRSSKSSCIYEKPR (domain or fragment, human, UniProt O60927 27-68, looked up, PPP1R11), human, residues 27-68; source: E. coli BL21 (DE3), purified (Ni-NTA, TEV, heat 95 °C, SEC); not shown: His6, N-terminal, cleaved; MBP, N-terminal, cleaved) [SSC: I3_(27-68) C60S/C61S] is ____.
Outgoing: 349

Incoming: Requested read-out: IC50 of PP1 inhibition (dephosphorylation of the H3pT3 peptide, released Pi). Entry: SLTIKLRKRKPEKKVEWTSDTVDNEHMGRRSSKCCSIYEKPR (domain or fragment, human, UniProt O60927 27-68, looked up, PPP1R11), human, residues 27-68; source: E. coli BL21 (DE3), purified (Ni-NTA, TEV, heat 95 °C, SEC); not shown: His6, N-terminal, cleaved; MBP, N-terminal, cleaved) [CCS: I3_(27-68) C62S]
Outgoing: 171

Incoming: So what's the measured IC50 of PP1 inhibition (dephosphorylation of the H3pT3 peptide, released Pi) for this one? SLTIKLRKRKPEKKVEWTSDTVDNEHMGRRSSKSCSIYEKPR (domain or fragment, human, UniProt O60927 27-68, looked up, PPP1R11), human, residues 27-68; source: E. coli BL21 (DE3), purified (Ni-NTA, TEV, heat 95 °C, SEC); not shown: His6, N-terminal, cleaved; MBP, N-terminal, cleaved) [SCS: I3_(27-68) C60S/C62S]
Outgoing: 179
